Where do these numbers come from? They come from ChEMBL document CHEMBL3885861.

Species: Rattus norvegicus
Experiment: Open TG-GATES - Regimen: Single
Assay type: toxicity, organism-based, Sprague-Dawley
Set-up: regimen Single, gender Male, age 6 weeks
Conditions: in vivo, po, 0 mg/kg, 9 h, tissue Blood, route gavage, dose level Control
quantity-kind: Eos (%)

[
  {
    "compound": "O=C(OC[C@H]1O[C@@H](OC(=O)c2cc(O)c(O)c(OC(=O)c3cc(O)c(O)c(O)c3)c2)[C@H](OC(=O)c2cc(O)c(O)c(OC(=O)c3cc(O)c(O)c(O)c3)c2)[C@@H](OC(=O)c2cc(O)c(O)c(OC(=O)c3cc(O)c(O)c(O)c3)c2)[C@@H]1OC(=O)c1cc(O)c(O)c(OC(=O)c2cc(O)c(O)c(O)c2)c1)c1cc(O)c(O)c(OC(=O)c2cc(O)c(O)c(O)c2)c1",
    "reported": 1.2
  },
  {
    "compound": "Cc1nnc2n1-c1ccc(Cl)cc1C(c1ccccc1Cl)=NC2",
    "reported": 0.6
  },
  {
    "compound": "NC1=NC(=O)C(c2ccccc2)O1 (stereo not drawn)",
    "reported": 1
  },
  {
    "compound": "CN(C)CCC(c1ccc(Cl)cc1)c1ccccn1 (stereo not drawn)",
    "reported": 0.8
  },
  {
    "compound": "CN/C(=N/CCSCc1nc[nH]c1C)NC#N",
    "reported": 1
  },
  {
    "compound": "CS(=O)(=O)O.Cc1ccc(NC(=O)c2ccc(CN3CCN(C)CC3)cc2)cc1Nc1nccc(-c2cccnc2)n1 [IMATINIB MESYLATE]",
    "reported": 0.8
  },
  {
    "compound": "CCCc1cc(=O)[nH]c(=S)[nH]1",
    "reported": 1.2
  },
  {
    "compound": "COC(=O)C1=C(C)NC(C)=C(C(=O)OC)C1c1ccccc1[N+](=O)[O-]",
    "reported": 1
  }
]
